Each item that follows carries a reported melting point.

| smilesStructure | melting point |
| --- | --- |
| Cn1nc(-c2ccc(F)cc2)c(-c2ccncc2)c1NC(=O)Cc1ccc(Br)cc1 | 199.8 to 202.1 °C |
| Cc1ccc(CC(=O)Nc2n[nH]c(-c3ccc(F)cc3)c2-c2ccncc2)cc1 | 262.8 to 264.7 °C |
| CN(C(=O)OC(C)(C)C)[C@@H](Cc1ccccc1)C(=O)Nc1n[nH]c(-c2ccc(F)cc2)c1-c1ccncc1 | 232.4 to 233.1 °C |
| O=C(Nc1n[nH]c(-c2ccc(F)cc2)c1-c1ccncc1)C(c1ccccc1)c1ccccc1 | 266.5 to 269.2 °C |
| O=C(Nc1n[nH]c(-c2ccc(F)cc2)c1-c1ccncc1)C(F)(F)F | 260.1 to 265.2 °C |
| CN(C(=O)Cc1ccccc1)c1nn(C)c(-c2ccc(F)cc2)c1-c1ccncc1 | 169.8 to 171.1 °C |
| Cn1nc(-c2ccc3c(c2)OCO3)c(-c2ccncc2)c1NC(=O)Cc1ccc(F)c(Cl)c1 | 206.9 to 208.7 °C |
| CC(C)(C)OC(=O)N1CCC[C@H]1C(=O)Nc1n[nH]c(-c2ccc(F)cc2)c1-c1ccncc1 | 124.6 to 125.7 °C |
